- Test system: debranching enzyme derived from the Sulfolobus solfataricus strain KM1
- assay: Influence of activators and inhibitors on debranching enzyme activity
- Type: biochemical
- test settings: Concentration 5 mM
The entries below are paired with their reported Residual activity.
Please format your answer as a value with the unit trailing.

compound: [Cl-].[Cl-].[Mg+2] [MgCl2]
measured result: 82.9%
--
compound: OCCS [2-Mercaptoethanol]
measured result: 104.1%
--
compound: O[C@H](CS)[C@H](O)CS (racemic) [Dithiothreitol]
measured result: 106.0%
--
compound: O=S(=O)([O-])[O-].[Cu+2] [CuSO4]
measured result: 0.0%

Given item [Cl][Mn][Cl] [MnCl2] , the value recorded as its Residual activity is 91.2%

Given item [Cl][Fe]([Cl])[Cl] [FeCl3] , the value recorded as its Residual activity is 39.0%

Given item O=S(=O)([O-])[O-].[Fe+2] [FeSO4] , the value recorded as its Residual activity is 74.1%

Given item [Ca+2].[Cl-].[Cl-] [CaCl2] , the value recorded as its Residual activity is 105.7%

Given item [Cl-].[Cl-].[Co+2] [CoCl2] , the value recorded as its Residual activity is 87.2%
